Exercise: state measured pIC50 for each of the molecules provided.
# tgt: Sodium-dependent serotonin transporter (Homo sapiens, UniProt P31645)
# Sequence (P31645 whole entry): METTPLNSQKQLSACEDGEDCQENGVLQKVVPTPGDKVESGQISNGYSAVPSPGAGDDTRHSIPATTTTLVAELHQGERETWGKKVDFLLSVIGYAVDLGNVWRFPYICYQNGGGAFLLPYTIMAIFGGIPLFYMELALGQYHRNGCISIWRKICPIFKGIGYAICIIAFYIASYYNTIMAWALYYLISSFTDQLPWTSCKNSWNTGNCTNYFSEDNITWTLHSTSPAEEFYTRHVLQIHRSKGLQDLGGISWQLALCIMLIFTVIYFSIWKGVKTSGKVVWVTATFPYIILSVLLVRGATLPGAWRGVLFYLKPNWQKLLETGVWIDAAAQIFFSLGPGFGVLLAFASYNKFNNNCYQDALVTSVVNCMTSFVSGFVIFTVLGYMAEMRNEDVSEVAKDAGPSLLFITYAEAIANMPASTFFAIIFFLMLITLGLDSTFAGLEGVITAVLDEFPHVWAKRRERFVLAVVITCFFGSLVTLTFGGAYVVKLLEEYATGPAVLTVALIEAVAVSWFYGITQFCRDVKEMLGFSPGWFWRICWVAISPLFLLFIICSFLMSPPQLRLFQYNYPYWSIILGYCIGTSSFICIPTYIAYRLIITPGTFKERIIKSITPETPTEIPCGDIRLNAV
# test_description: Displacement of [3H]-citalopram from human SERT expressed in HEK293 cell membrane
Scale note: pIC50 = -log10(concentration in M).

Data request: Please tell me: pIC50 of COC(=O)[C@@H]1C2CCC(C[C@@H]1c1ccc(Cl)c(Cl)c1)S2 (stereo partly specified) , system Sodium-dependent serotonin transporter (Homo sapiens, UniProt P31645)?
Data returned: 8.52

Data request: Please tell me: pIC50 of CN1C2CCC1[C@@H](COC(=O)CCC(=O)OC[C@@H]1C3CCC(C[C@@H]1c1ccc(Cl)c(Cl)c1)N3C)[C@@H](c1ccc(Cl)c(Cl)c1)C2 , system Sodium-dependent serotonin transporter (Homo sapiens, UniProt P31645)?
Data returned: 6.97

Data request: Please tell me: pIC50 of CN1C2CCC1[C@@H](COC(=O)CCCCCCCCCCC(=O)OC[C@@H]1C3CCC(C[C@@H]1c1ccc(Cl)c(Cl)c1)N3C)[C@@H](c1ccc(Cl)c(Cl)c1)C2 , system Sodium-dependent serotonin transporter (Homo sapiens, UniProt P31645)?
Data returned: 6.85

Data request: Please tell me: pIC50 of CCCCCCC(=O)OC[C@H]1[C@@H](c2ccc(Cl)c(Cl)c2)CC2CC[C@H]1N2C , system Sodium-dependent serotonin transporter (Homo sapiens, UniProt P31645)?
Data returned: 7.28

Data request: Please tell me: pIC50 of CN1C2CC[C@@H]1[C@@H](COC(=O)CCC(=O)OC[C@@H]1C3CCC(C[C@@H]1c1ccc(Cl)c(Cl)c1)S3)[C@@H](c1ccc(Cl)c(Cl)c1)C2 , system Sodium-dependent serotonin transporter (Homo sapiens, UniProt P31645)?
Data returned: 6.23

Data request: Please tell me: pIC50 of O=C(CCC(=O)OC[C@@H]1C2CCC(C[C@@H]1c1ccc(Cl)c(Cl)c1)S2)OC[C@@H]1C2CCC(C[C@@H]1c1ccc(Cl)c(Cl)c1)S2 , system Sodium-dependent serotonin transporter (Homo sapiens, UniProt P31645)?
Data returned: 5.66

---

# tgt: UniProt:Q01959
# Sequence (Q01959 whole entry): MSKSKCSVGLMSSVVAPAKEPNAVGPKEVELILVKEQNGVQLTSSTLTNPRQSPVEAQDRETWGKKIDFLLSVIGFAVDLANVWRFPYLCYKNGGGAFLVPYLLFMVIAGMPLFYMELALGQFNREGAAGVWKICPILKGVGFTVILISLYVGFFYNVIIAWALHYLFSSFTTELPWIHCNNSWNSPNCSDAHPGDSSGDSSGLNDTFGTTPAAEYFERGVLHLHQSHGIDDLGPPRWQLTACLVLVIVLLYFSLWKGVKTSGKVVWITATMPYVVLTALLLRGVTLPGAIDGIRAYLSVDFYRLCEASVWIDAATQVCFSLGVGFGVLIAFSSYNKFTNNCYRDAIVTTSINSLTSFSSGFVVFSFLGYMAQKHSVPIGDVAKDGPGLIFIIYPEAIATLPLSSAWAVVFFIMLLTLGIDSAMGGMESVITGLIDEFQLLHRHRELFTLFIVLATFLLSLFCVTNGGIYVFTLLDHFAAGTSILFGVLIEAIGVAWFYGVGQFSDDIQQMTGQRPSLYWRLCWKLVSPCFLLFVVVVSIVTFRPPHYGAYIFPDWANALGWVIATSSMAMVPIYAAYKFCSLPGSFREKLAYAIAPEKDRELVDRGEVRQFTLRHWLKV
# test_description: Displacement of [3H]WIN-35428 from human DAT expressed in transfected cell membrane
assay_readout: pIC50
Scale note: pIC50 = -log10(concentration in M).

Data request: Field request: pIC50 | item: CN1C2CCC1[C@@H](COC(=O)CCCCCCC(=O)OC[C@@H]1C3CCC(C[C@@H]1c1ccc(Cl)c(Cl)c1)N3C)[C@@H](c1ccc(Cl)c(Cl)c1)C2
Data returned: 7.96

Data request: Field request: pIC50 | item: CN1C2CCC1[C@@H](COC(=O)CCCCC(=O)OC[C@@H]1C3CCC(C[C@@H]1c1ccc(Cl)c(Cl)c1)N3C)[C@@H](c1ccc(Cl)c(Cl)c1)C2
Data returned: 7.55

Data request: Field request: pIC50 | item: CN1C2CC[C@@H]1[C@@H](COC(=O)CCC(=O)OC[C@@H]1C3CCC(C[C@@H]1c1ccc(Cl)c(Cl)c1)S3)[C@@H](c1ccc(Cl)c(Cl)c1)C2
Data returned: 7.26
